B1: Hairpin Ribozyme (parent)
chain: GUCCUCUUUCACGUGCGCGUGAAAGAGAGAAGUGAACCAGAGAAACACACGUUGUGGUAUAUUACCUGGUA

# Variants of: B1
# protocol: self-cleavage, relative activity (ratio to wild type); higher = more cleavage; co-transcriptional
# cutoff 0.3 applies to self-cleavage; >= gives 1 (yes), < gives 0 (no)

Example cases with answers are listed next.
mutant_label	group_label
A64U A71G	1 (yes)
U58A U70C	1 (yes)

[Q] Kindly determine if self-cleavage recorded for A11C A49C is above or exactly 0.3.
[A] 0 (no)
